# Tested on: Pseudomonas aeruginosa
# EXPERIMENT DESCRIPTION: Antimicrobial activity against Pseudomonas aeruginosa ATCC 9027 by MTT assay
# Assay type: functional
MEASUREMENT NAME: MIC50 (µg/mL)

(a) Nc1ncnc2c1ncn2[C@@H]1O[C@H](COC(=O)Cc2ccc(Cl)cc2)[C@@H](O)[C@H]1O
(b) CC1(C)O[C@@H]2[C@H](O1)[C@@H](COC(=O)Cc1ccc(Cl)cc1)O[C@H]2n1cnc2c(N)ncnc21
(c) Nc1ncnc2c1ncn2[C@@H]1O[C@H](COC(=O)c2ccc(F)cc2)[C@@H](O)[C@H]1O
(d) Nc1ncnc2c1ncn2[C@@H]1O[C@H](COC(=O)c2cccc(F)c2)[C@@H](O)[C@H]1O
Which order do these items fall in when sorted by MIC50 from largest to smallest? Lab note: final answer is the ordered label list.
b, a, c, d
(b: 30.6 µg/mL, a: 19.9 µg/mL, c: 11.2 µg/mL, d: 3.5 µg/mL)

====

# System: Escherichia coli
# EXPERIMENT DESCRIPTION: Antimicrobial activity against Escherichia coli ATCC 8739 by MTT assay
# Format: functional
MEASUREMENT NAME: MIC50 (µg/mL)

Example entries begin here.
CC1(C)O[C@@H]2[C@H](O1)[C@@H](COC(=O)Cc1cccc(O)c1)O[C@H]2n1cnc2c(N)ncnc21 :: 18.9
CC1(C)O[C@@H]2[C@H](O1)[C@@H](COC(=O)Cc1ccc(O)cc1)O[C@H]2n1cnc2c(N)ncnc21 :: 44.6

(1) Nc1ncnc2c1ncn2[C@@H]1O[C@H](COC(=O)c2ccc(Br)cc2)[C@@H](O)[C@H]1O
(2) CC1(C)O[C@@H]2[C@H](O1)[C@@H](COC(=O)Cc1ccc(Cl)c(Cl)c1)O[C@H]2n1cnc2c(N)ncnc21
MIC50 comparison. Which is larger, 1 or 2 ? Pick one and reply with its label.
2
(2: 34 µg/mL, 1: 10.1 µg/mL)

====

# Tested on: Pseudomonas aeruginosa
# EXPERIMENT DESCRIPTION: Antimicrobial activity against Pseudomonas aeruginosa ATCC 9027 by MTT assay
# Assay type: functional
MEASUREMENT NAME: MIC50 (µg/mL)

Nc1ncnc2c1ncn2[C@@H]1O[C@H](COC(=O)Cc2ccc(Cl)c(Cl)c2)[C@@H](O)[C@H]1O :: 21.4
Nc1ncnc2c1ncn2[C@@H]1O[C@H](COC(=O)c2ccc(Cl)cc2)[C@@H](O)[C@H]1O :: 19.3
CCCC(=O)OC[C@H]1O[C@@H](n2cnc3c(N)ncnc32)[C@H](O)[C@@H]1O :: 87.3
CC1(C)O[C@@H]2[C@H](O1)[C@@H](COC(=O)Cc1cccc(Br)c1)O[C@H]2n1cnc2c(N)ncnc21 :: 18.8
CC(=O)OC[C@H]1O[C@@H](n2cnc3c(N)ncnc32)[C@H](O)[C@@H]1O :: 58.2

(a) CC1(C)O[C@@H]2[C@H](O1)[C@@H](COC(=O)Cc1ccccc1F)O[C@H]2n1cnc2c(N)ncnc21
(b) CC1(C)O[C@@H]2[C@H](O1)[C@@H](COC(=O)Cc1ccc(O)cc1)O[C@H]2n1cnc2c(N)ncnc21
Compare MIC50: is it lower for a or for b ? Write the label of whichever entry you select.
b
(b: 17.4 µg/mL, a: 25.5 µg/mL)

====

# System: Escherichia coli
# EXPERIMENT DESCRIPTION: Antimicrobial activity against Escherichia coli ATCC 8739 by MTT assay
# Format: functional
MEASUREMENT NAME: MIC50 (µg/mL)

COc1ccc(CC(=O)OC[C@H]2O[C@@H](n3cnc4c(N)ncnc43)[C@H](O)[C@@H]2O)cc1OC :: 16.5
Nc1ncnc2c1ncn2[C@@H]1O[C@H](COC(=O)c2ccc(F)cc2)[C@@H](O)[C@H]1O :: 24.8

(P) Nc1ncnc2c1ncn2[C@@H]1O[C@H](COC(=O)Cc2ccccc2Cl)[C@@H](O)[C@H]1O
(Q) Nc1ncnc2c1ncn2[C@@H]1O[C@H](COC(=O)Cc2cccc(Cl)c2)[C@@H](O)[C@H]1O
(R) CC1(C)O[C@@H]2[C@H](O1)[C@@H](COC(=O)Cc1cccc(Br)c1)O[C@H]2n1cnc2c(N)ncnc21
(S) CC1(C)O[C@@H]2[C@H](O1)[C@@H](COC(=O)Cc1ccc(F)cc1)O[C@H]2n1cnc2c(N)ncnc21
(T) Nc1ncnc2c1ncn2[C@@H]1O[C@H](COC(=O)Cc2cccc(F)c2)[C@@H](O)[C@H]1O
Reorder: MIC50, max to min. Submit the labels in the order that the ranking request calls for.
S, R, Q, P, T
(S: 76.2 µg/mL, R: 40.6 µg/mL, Q: 20.2 µg/mL, P: 7.4 µg/mL, T: 1.3 µg/mL)

(a) Nc1ncnc2c1ncn2[C@@H]1O[C@H](COC(=O)Cc2ccccc2F)[C@@H](O)[C@H]1O
(b) Nc1ncnc2c1ncn2[C@@H]1O[C@H](COC(=O)Cc2ccc(O)cc2)[C@@H](O)[C@H]1O
Hi there! Just curious which has the higher MIC50 between a and b . Field: selected label. Fill in the label of the entry you choose.
a
(a: 23.6 µg/mL, b: 9.8 µg/mL)

(1) CC1(C)O[C@@H]2[C@H](O1)[C@@H](COC(=O)Cc1ccccc1F)O[C@H]2n1cnc2c(N)ncnc21
(2) Nc1ncnc2c1ncn2[C@@H]1O[C@H](COC(=O)Cc2ccc(Br)cc2)[C@@H](O)[C@H]1O
(3) CC1(C)O[C@@H]2[C@H](O1)[C@@H](COC(=O)Cc1cccc(F)c1)O[C@H]2n1cnc2c(N)ncnc21
List from greatest to least MIC50. List the labels, following the order given in the request.
2, 3, 1

====

# Tested on: Pseudomonas aeruginosa
# EXPERIMENT DESCRIPTION: Antimicrobial activity against Pseudomonas aeruginosa ATCC 9027 by MTT assay
# Assay type: functional
MEASUREMENT NAME: MIC50 (µg/mL)

Nc1ncnc2c1ncn2[C@@H]1O[C@H](COC(=O)Cc2ccccc2O)[C@@H](O)[C@H]1O :: 26
Nc1ncnc2c1ncn2[C@@H]1O[C@H](COC(=O)c2ccccc2)[C@@H](O)[C@H]1O :: 21.9

(P) Nc1ncnc2c1ncn2[C@@H]1O[C@H](COC(=O)Cc2ccc(F)cc2)[C@@H](O)[C@H]1O
(Q) Cc1ccc(CC(=O)OC[C@H]2O[C@@H](n3cnc4c(N)ncnc43)[C@@H]3OC(C)(C)O[C@@H]32)cc1
Compare P and Q and name the one whose reported MIC50 is smaller. Output the label that corresponds to your choice.
Q

====

# EXPERIMENT DESCRIPTION: Inhibition of Staphylococcus aureus tyrosyl-tRNA synthetase expressed in Escherichia coli assessed as reduction in tRNA aminoacylation pre-incubated for 10 mins before addition of Escherichia coli MRE600 tRNA and L-tyrosine
MEASUREMENT NAME: IC50 (µM)

Illustrative cases are given below, each with its answer.
Cc1ccc(CC(=O)OC[C@H]2O[C@@H](n3cnc4c(N)ncnc43)[C@H](O)[C@@H]2O)cc1 :: 15
CC1(C)O[C@@H]2[C@H](O1)[C@@H](COC(=O)Cc1ccc(Br)cc1)O[C@H]2n1cnc2c(N)ncnc21 :: 5.6
Nc1ncnc2c1ncn2[C@@H]1O[C@H](COC(=O)Cc2ccccc2F)[C@@H](O)[C@H]1O :: 40
CC1(C)O[C@@H]2[C@H](O1)[C@@H](COC(=O)Cc1ccc(F)cc1)O[C@H]2n1cnc2c(N)ncnc21 :: 7.1
Nc1ncnc2c1ncn2[C@@H]1O[C@H](COC(=O)c2ccc(Br)cc2)[C@@H](O)[C@H]1O :: 62

(1) CC1(C)O[C@@H]2[C@H](O1)[C@@H](COC(=O)Cc1ccccc1Cl)O[C@H]2n1cnc2c(N)ncnc21
(2) Cc1ccc(CC(=O)OC[C@H]2O[C@@H](n3cnc4c(N)ncnc43)[C@@H]3OC(C)(C)O[C@@H]32)cc1
Identify the entry with the smaller IC50: 1 or 2 . Answer by stating the label of the chosen item.
2
(2: 17 µM, 1: 47 µM)

====

# Tested on: Escherichia coli
# EXPERIMENT DESCRIPTION: Antimicrobial activity against Escherichia coli ATCC 8739 by MTT assay
# Assay type: functional
MEASUREMENT NAME: MIC50 (µg/mL)

(A) Nc1ncnc2c1ncn2[C@@H]1O[C@H](COC(=O)c2cccc(F)c2)[C@@H](O)[C@H]1O
(B) Nc1ncnc2c1ncn2[C@@H]1O[C@H](COC(=O)Cc2cccc(Br)c2)[C@@H](O)[C@H]1O
(C) Nc1ncnc2c1ncn2[C@@H]1O[C@H](COC(=O)c2cccc(Cl)c2)[C@@H](O)[C@H]1O
Reorder: MIC50, max to min. Reply with the item labels sorted in the order that was asked for.
B, C, A
(B: 38.1 µg/mL, C: 11.3 µg/mL, A: 5.3 µg/mL)

(A) CC1(C)O[C@@H]2[C@H](O1)[C@@H](COC(=O)Cc1ccccc1O)O[C@H]2n1cnc2c(N)ncnc21
(B) CC(=O)OC[C@H]1O[C@@H](n2cnc3c(N)ncnc32)[C@H](O)[C@@H]1O
For the pair A and B , which member has the lower MIC50 number? Pick one; state its label.
A
(A: 37.2 µg/mL, B: 77.6 µg/mL)

(A) COc1ccc(CC(=O)OC[C@H]2O[C@@H](n3cnc4c(N)ncnc43)[C@@H]3OC(C)(C)O[C@@H]32)cc1OC
(B) CC1(C)O[C@@H]2[C@H](O1)[C@@H](COC(=O)Cc1ccccc1Cl)O[C@H]2n1cnc2c(N)ncnc21
Higher MIC50: A or B ? Could you answer with the label of the item you picked?
A

(1) CC1(C)O[C@@H]2[C@H](O1)[C@@H](COC(=O)Cc1ccc(Cl)cc1)O[C@H]2n1cnc2c(N)ncnc21
(2) Nc1ncnc2c1ncn2[C@@H]1O[C@H](COC(=O)Cc2ccc(Cl)cc2)[C@@H](O)[C@H]1O
(3) Nc1ncnc2c1ncn2[C@@H]1O[C@H](COC(=O)Cc2cccc(O)c2)[C@@H](O)[C@H]1O
(4) O=C(O)c1cn(C2CC2)c2cc(N3CCNCC3)c(F)cc2c1=O [CIPROFLOXACIN]
Hey, quick one: sort these by MIC50, largest value first please. Give me the labels in the order the question wants.
3, 1, 2, 4
(3: 37 µg/mL, 1: 15.2 µg/mL, 2: 7.7 µg/mL, 4: 0.67 µg/mL)

Cited source for all entries: ChEMBL document CHEMBL3621182
